Collected log10 IC50 values appear next to each entry.
Molecular target: human GluN1/GluN2B NMDA receptors (Homo sapiens)
Construct: expressed in transfected cells
Assay: Cell-based calcium flux (FLIPR) assay on cloned human NR1/NR2B ion channels expressed in mammalian cells (standard and HTS buffer variants)
Settings: standard assay buffer (0.5 mM MgCl2 in dye loading buffer; 137 mM NaCl, 4 mM KCl in assay buffer), human GluN1/GluN2B, read-out: NR2B IC50 (μM) standard assay
Values below are the log10 of the recorded IC50, with µM as the unit.

{"CPD SMILES": "CCC(=O)Cn1c(=O)n(C)c2ncc(-c3ccc(F)c(C)c3F)cc21", "log10 IC50": -1.59}
{"CPD SMILES": "COCCNC(=O)Cn1c(=O)[nH]c2ncc(-c3cc(F)cc(F)c3)cc21", "log10 IC50": 0.25}
{"CPD SMILES": "Cn1c(=O)n(CC(=O)N2CCCC2)c2cc(-c3ccc(C(F)(F)F)s3)cnc21", "log10 IC50": -1.10}
{"CPD SMILES": "Cc1c(F)ccc(-c2cnc3c(c2)n(CC(=O)N2CC(F)C2)c(=O)n3CF)c1F", "log10 IC50": -1.77}

Query :: Quick check: log10 IC50 of `CN(C)C(=O)Cn1c(=O)n(C)c2ncc(-c3cccc(F)c3F)cc21` ?
Result :: -0.39

Query :: Another compound to check: `Cn1c(=O)n(CC(=O)N2CC(F)C2)c2cc(-c3ccc(F)c(F)c3)cnc21`
Result :: -1.38

Query :: Another compound to check: `Cn1c(=O)n(Cc2cccnc2)c2cc(-c3ccc(F)c(Cl)c3)cnc21`
Result :: -1.36

Query :: Another compound to check: `Cn1c(=O)n(Cc2cncc(F)c2)c2cc(-c3cc(F)c(F)c(F)c3)cnc21`
Result :: -0.29

###

Target: human GluN1/GluN2B NMDA receptors (Homo sapiens, UniProt Q13224)
Construct: expressed in transfected cells
Sequence (Q13224 27-1484, other chains not shown): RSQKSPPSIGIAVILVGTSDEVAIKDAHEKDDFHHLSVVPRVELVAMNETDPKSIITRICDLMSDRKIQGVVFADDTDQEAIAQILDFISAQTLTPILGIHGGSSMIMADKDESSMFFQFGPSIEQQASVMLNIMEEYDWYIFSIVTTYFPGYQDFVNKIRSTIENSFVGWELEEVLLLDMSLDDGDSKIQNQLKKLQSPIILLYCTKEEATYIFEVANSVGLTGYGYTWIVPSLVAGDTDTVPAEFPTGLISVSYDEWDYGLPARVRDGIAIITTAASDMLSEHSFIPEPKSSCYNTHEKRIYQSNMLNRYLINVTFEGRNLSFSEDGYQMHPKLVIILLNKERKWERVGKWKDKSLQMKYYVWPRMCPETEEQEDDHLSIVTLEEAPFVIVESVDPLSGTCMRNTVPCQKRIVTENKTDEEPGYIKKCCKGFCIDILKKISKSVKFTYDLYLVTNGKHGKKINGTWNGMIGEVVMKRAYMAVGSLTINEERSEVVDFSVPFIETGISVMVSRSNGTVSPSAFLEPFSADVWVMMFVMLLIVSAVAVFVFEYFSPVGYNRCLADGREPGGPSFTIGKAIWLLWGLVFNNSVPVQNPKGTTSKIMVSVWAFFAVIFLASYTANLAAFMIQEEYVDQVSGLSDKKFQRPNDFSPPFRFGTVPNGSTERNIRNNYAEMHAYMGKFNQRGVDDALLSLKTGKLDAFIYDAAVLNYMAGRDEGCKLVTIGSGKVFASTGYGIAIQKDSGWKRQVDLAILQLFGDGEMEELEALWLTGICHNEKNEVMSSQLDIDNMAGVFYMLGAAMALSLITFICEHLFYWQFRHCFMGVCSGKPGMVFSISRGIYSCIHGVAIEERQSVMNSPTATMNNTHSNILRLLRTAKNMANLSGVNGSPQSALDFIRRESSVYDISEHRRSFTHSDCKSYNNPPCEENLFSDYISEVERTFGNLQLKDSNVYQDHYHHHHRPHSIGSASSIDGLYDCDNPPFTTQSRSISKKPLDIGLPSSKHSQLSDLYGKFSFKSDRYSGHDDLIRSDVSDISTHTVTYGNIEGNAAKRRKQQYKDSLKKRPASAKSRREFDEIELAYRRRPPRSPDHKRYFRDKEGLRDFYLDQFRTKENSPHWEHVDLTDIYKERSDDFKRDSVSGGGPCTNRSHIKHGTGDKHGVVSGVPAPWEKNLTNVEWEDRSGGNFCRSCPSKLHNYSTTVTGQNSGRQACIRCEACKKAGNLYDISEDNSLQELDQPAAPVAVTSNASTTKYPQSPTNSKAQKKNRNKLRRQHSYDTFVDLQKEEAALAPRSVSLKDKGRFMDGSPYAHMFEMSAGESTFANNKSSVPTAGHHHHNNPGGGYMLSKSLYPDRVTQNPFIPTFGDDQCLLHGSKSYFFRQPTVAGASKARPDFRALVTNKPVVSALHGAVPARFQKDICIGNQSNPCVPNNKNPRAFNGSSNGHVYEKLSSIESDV
Assay: Cell-based calcium flux (FLIPR) assay on cloned human NR1/NR2B ion channels expressed in mammalian cells (standard and HTS buffer variants)
Settings: standard assay buffer (0.5 mM MgCl2 dye loading; 137 mM NaCl, 4 mM KCl assay buffer), human GluN1/GluN2B cells, read-out: NR2B IC50 (μM) standard assay
So basically: is IC50 under 0.05 µM? Then Fulfilled. Not under? Then Not fulfilled.

{"COMPOUND": "Cc1c(F)ccc(-c2cnc3[nH]c(=O)n(Cc4cccnc4)c3c2)c1F [Example 293]", "LABEL VALUE": "Fulfilled"}
{"COMPOUND": "Cc1ccncc1Cn1c(=O)[nH]c2ncc(-c3cc(F)c(F)c(F)c3)cc21 [Example 312]", "LABEL VALUE": "Fulfilled"}
{"COMPOUND": "Cn1c(=O)n(CC(=O)N2CCC2)c2cc(-c3ccc(C(F)(F)F)s3)cnc21 [Example 27]", "LABEL VALUE": "Fulfilled"}

Query :: Does the reported IC50 of COc1ncccc1Cn1c(=O)[nH]c2ncc(-c3cccc(C(F)(F)F)c3)cc21 [Example 22] stay below 0.05 µM?
Result :: Not fulfilled

Query :: Another compound to check: Cn1c(=O)n(CC(=O)O)c2cc(-c3cccc(C(F)(F)F)c3)cnc21 [Example 137]
Result :: Not fulfilled

Query :: Another compound to check: Cc1noc(Cn2c(=O)[nH]c3ncc(-c4ccc(F)c(F)c4)cc32)n1 [Example 143]
Result :: Not fulfilled

Query :: Another compound to check: Cc1noc(Cn2c(=O)[nH]c3ncc(-c4ccc(F)cc4)cc32)n1 [Example 140]
Result :: Not fulfilled

###

Collected IC50 values appear next to each entry.
Molecular target: human GluN1/GluN2B NMDA receptors (Homo sapiens)
Construct: expressed in transfected cells
Assay: Cell-based calcium flux (FLIPR) assay on cloned human NR1/NR2B ion channels expressed in mammalian cells (standard and HTS buffer variants)
Conditions: HTS assay buffer (1.5 mM MgCl2 dye loading; 150 mM NaCl, 3 mM KCl assay buffer), human GluN1/GluN2B cells, read-out: NR2B IC50 (μM) HTS assay
The reply should contain only the number, in µM.

{"CPD SMILES": "COc1ccc(-c2cnc3[nH]c(=O)n(CC(=O)NC4CC4)c3c2)cc1", "MEASURED ON": "human GluN1/GluN2B NMDA receptors (Homo sapiens)", "IC50 [µM]": 1.01}
{"CPD SMILES": "COCCn1c(=O)[nH]c2ncc(-c3ccc(F)cc3C)cc21", "MEASURED ON": "human GluN1/GluN2B NMDA receptors (Homo sapiens)", "IC50 [µM]": 2.06}
{"CPD SMILES": "Cc1cc(F)ccc1-c1cnc2[nH]c(=O)n(CC(=O)N(C)C3CC3)c2c1", "MEASURED ON": "human GluN1/GluN2B NMDA receptors (Homo sapiens)", "IC50 [µM]": 1.82}
{"CPD SMILES": "Cc1cc(F)ccc1-c1cnc2c(c1)n(CC(=O)NC1CC1)c(=O)n2C", "MEASURED ON": "human GluN1/GluN2B NMDA receptors (Homo sapiens)", "IC50 [µM]": 2.71}

Query :: Quick check: IC50 of `Cc1cc(C)cc(-c2cnc3[nH]c(=O)n(CC(=O)NC4CC4)c3c2)c1` ?
Result :: 1.03

Query :: Another molecule to check: `COc1ccc(-c2cnc3[nH]c(=O)n(CC(=O)N4CCCC4)c3c2)cc1`
Result :: 2.14

Query :: Another molecule to check: `COc1ccc(-c2cnc3[nH]c(=O)n(CC(=O)N(C)C4CC4)c3c2)cc1`
Result :: 8.72

Query :: Another molecule to check: `COc1ccc(-c2cnc3[nH]c(=O)n(CC(=O)NC4CC4)c3c2)c(Cl)c1`
Result :: 1.38

###

Biological target: human GluN1/GluN2B NMDA receptors (Homo sapiens, UniProt Q13224)
Construct: expressed in transfected cells
Assay: Cell-based calcium flux (FLIPR) assay on cloned human NR1/NR2B ion channels expressed in mammalian cells (standard and HTS buffer variants)
Settings: standard assay buffer (0.5 mM MgCl2 dye loading; 137 mM NaCl, 4 mM KCl assay buffer), human GluN1/GluN2B cells, read-out: NR2B IC50 (μM) standard assay
Collected IC50 values appear next to each entry.
The reply should contain only the number, in µM.

{"CPD SMILES": "Cc1cc(-c2cnc3c(c2)n(Cc2ccncc2)c(=O)n3C)ccc1F", "IC50 / µM": 0.6}

With those in mind, consider the next molecule.
Query :: Param readout= IC50; system= human GluN1/GluN2B NMDA receptors (Homo sapiens, UniProt Q13224); entry= `Cc1ncc(-c2cnc3c(c2)n(CC(=O)N(C)C)c(=O)n3C)s1` ; returns value.
Result :: 11.7

###

Target: human GluN1/GluN2B NMDA receptors (Homo sapiens, UniProt Q13224)
Construct: expressed in transfected cells
Experiment: Cell-based calcium flux (FLIPR) assay on cloned human NR1/NR2B ion channels expressed in mammalian cells (standard and HTS buffer variants)
Details: standard assay buffer (0.5 mM MgCl2 dye loading; 137 mM NaCl, 4 mM KCl assay buffer), human GluN1/GluN2B cells, read-out: NR2B IC50 (μM) standard assay
REPORTED PROPERTY: log10(IC50) (log10 of the value in µM)
Values below are the log10 of the recorded IC50, with µM as the unit.

Some solved cases for reference:
{"CPD SMILES": "Cc1ccc(-c2cnc3c(c2)n(CC(=O)N(C)C)c(=O)n3C)s1", "ENDPOINT VALUE": -1.37}
{"CPD SMILES": "Cn1c(=O)n(Cc2ccncc2)c2cc(-c3cccc(F)c3)cnc21", "ENDPOINT VALUE": 0.52}
{"CPD SMILES": "O=c1[nH]c2ncc(-c3cc(F)cc(F)c3)cc2n1CCN1CCCC1", "ENDPOINT VALUE": 0.10}
{"CPD SMILES": "Cc1nnc(Cn2c(=O)n(C)c3ncc(-c4ccc(F)c(F)c4)cc32)o1", "ENDPOINT VALUE": -0.50}

Query :: Param readout= log10(IC50); system= human GluN1/GluN2B NMDA receptors (Homo sapiens, UniProt Q13224); entry= `Cc1ncc(-c2cnc3c(c2)n(CC(=O)N2CC(F)C2)c(=O)n3C)s1` ; returns value.
Result :: 0.73

###

Biological target: human GluN1/GluN2B NMDA receptors (Homo sapiens, UniProt Q13224)
Construct: expressed in transfected cells
Assay: Cell-based calcium flux (FLIPR) assay on cloned human NR1/NR2B ion channels expressed in mammalian cells (standard and HTS buffer variants);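 note: stable Tet-On inducible cell line, Ca2+ influx triggered by glutamate at about EC40 plus 10 µM glycine, fluorescent dye read-out over 5 min, normalized to control wells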
Settings: standard assay buffer (0.5 mM MgCl2 in dye loading buffer; 137 mM NaCl, 4 mM KCl in assay buffer), human GluN1/GluN2B, read-out: NR2B IC50 (μM) standard assay
So basically: is IC50 under 0.8 µM? Then Condition met. Not under? Then Condition not met.

Example entries begin here.
{"CPD SMILES": "Cn1c(=O)n(Cc2cccnc2)c2cc(-c3ccc(C(F)(F)F)s3)cnc21", "LABEL VALUE": "Condition met"}
{"CPD SMILES": "Cc1cccc(-c2cnc3c(c2)n(CC(=O)N2CC(F)(F)C2)c(=O)n3C)c1F", "LABEL VALUE": "Condition met"}
{"CPD SMILES": "Cn1c(=O)n(Cc2cccnc2)c2cc(-c3ccc(F)c(F)c3F)cnc21", "LABEL VALUE": "Condition not met"}
{"CPD SMILES": "Cc1cc(Cn2c(=O)n(C)c3ncc(-c4ccc(C(F)F)s4)cc32)no1", "LABEL VALUE": "Condition met"}

Query :: Does the reported IC50 of `Cn1c(=O)n(Cc2cncc(Cl)c2)c2cc(-c3ccc(C(F)(F)F)s3)cnc21` stay below 0.8 µM?
Result :: Condition not met

Query :: Another compound to check: `Cn1c(=O)n(CC(=O)N2CCC2)c2cc(-c3ccc(Cl)c(OC(F)F)c3)cnc21`
Result :: Condition met

Query :: Another compound to check: `Cn1c(=O)n(Cc2cccnn2)c2cc(-c3cc(F)cc(C(F)(F)F)c3)cnc21`
Result :: Condition met

Query :: Another compound to check: `O=C(Cn1c(=O)n(CCF)c2ncc(-c3ccc(C(F)(F)F)s3)cc21)N1CCC1`
Result :: Condition met

Query :: Another compound to check: `Cn1c(=O)n(CC(=O)N2CC(F)(F)C2)c2cc(-c3ccc(F)c(F)c3)cnc21`
Result :: Condition met

Query :: Another compound to check: `Cn1cc(Cn2c(=O)n(C)c3ncc(-c4cccc(C(F)(F)F)c4)cc32)cn1`
Result :: Condition met

Query :: Another compound to check: `Cc1cc(-c2cnc3c(c2)n(Cc2cncc(Cl)c2)c(=O)n3C)sc1Cl`
Result :: Condition not met

Query :: Another compound to check: `CCOc1ccccc1-c1cnc2[nH]c(=O)n(Cc3cc(C)on3)c2c1`
Result :: Condition met
